- studySystem: T1, Lsb3, P43603
- T1 sequence (P43603 385-451, looked up): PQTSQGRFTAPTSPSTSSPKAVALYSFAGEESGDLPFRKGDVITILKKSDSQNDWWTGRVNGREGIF
- testProtocol: SPOT array
- conditionDetails: median of control spots 406
measurementType: SPOT intensity

- IRMPSNPALPKKLLN: 53
- PELAPKREAPKPPAN: 0
- AKDLIVPRRPEWNEG: 591
- RRRIAYPFYPFKKLG: 0
- GSKSGPPPRPKKPST: 55
- RVRKTHVPASKRPSG: 0
- SGVRLPAPPPPPRRG: 0
- GPPPPLPPPLFPSSS: 0
- RRRDFGAPANKRPRR: 10
- RLSFFFPLDPAYIRN: 0
- DKSRPPRPPPKPLHL: 216
- DRIRMFIRFPKFLLE: 6
- GDHPKGPPPPPPPDE: 0
- PALPSLPPPPLLNVD: 0
- VRTRRRPPPPPIPST: 38
